target: PfBDP1-BRD (residues 303–488 or 333–456), bromodomain of P. falciparum Bromodomain Protein 1, as used in ITC (P. falciparum) (UniProt Q8IJ72); test: ITC; histone peptide (2.5–5.0 mM) in the syringe, PfBDP1-BRD (303–488 or 333–456; 100–200 μM) in the sample cell; 5°C; 20 mM sodium phosphate pH 7.5, 150 mM NaCl, 1 mM TCEP; 1:1 binding model, single set of identical sites
No end group written: not given here.
readoutName: Kd
Respond with the figure and its unit, in that order.

Exercise: What does the record list as Kd for SGK(Ac)GPAQK(Ac)SQAAK(Ac)K(Ac)TAGK(Ac)TLGPR [H2B.ZK3acK8acK13acK14acK18ac histone peptide, penta-acetylated histone H2B.Z] ?
Key: 1300 µM
